B1: library; numbered along this chain (parent)
chain: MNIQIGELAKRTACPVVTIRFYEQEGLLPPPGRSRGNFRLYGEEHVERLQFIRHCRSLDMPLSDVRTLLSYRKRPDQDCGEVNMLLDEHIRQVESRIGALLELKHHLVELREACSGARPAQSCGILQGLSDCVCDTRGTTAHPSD

variants of: B1; assay: sfGFP reporter fluorescence (15 h) (µM FITC); higher = stronger transcriptional activation; conditions: library round: Round 0; ligand: 1 µM Pb
Would you kindly list sfGFP reporter fluorescence for each of these variants?
One number for each entry.

MNIQIGELAKRTACPVVTIRFYEQEGLLPPPGRSRGNFRLYGHEHVERLQFIRHCRSLDMPLSDVRTLLSYRKRPDQDCGEVNMLLDEHIRQVESRIGALLELKHHLVELREACSGARPAQSCGILQGLSDCVCDTRGTTAHPSD 0.0891
MNIQIGELAKRTACPVVTIRFYEQEGLLPPPGRSRGNFRLYGEEHVERLQFIRHCRSLDMPLSDVRTLLSYRKRPDQDCGEVNMLLDEHIRQVESRIGALLELKHHLVELREACSGARPAQSCGILQGLSDCVCDTRGTTAHISD 0.0768
MNIQIGELAKRTACPVVTIRFYEQEGLLPPPGRSRGNFRLYGEEHVERLQFIRHCRSLDMPLSDVRTLLSYRKRPDQDCGEVNMLLDEMIRQVESRIGALLELKHHLVELREACSGARPAQSCGILQGLSDCVCDTRGTTAHPSD 0.0636
MNIQIGELAKRTACPVVTIRFYEQEGLCPPPGRSRGNFRLYGEEHVERLQFIRHCRSLDMPLSDVRTLLSYRKRPDQDCGEVNMLLDEHIRQVESRIGALLELKHHLVELREACSGARPAQSCGILQGLSDCVCDTRGTTAHPSD 0.0649
MNIQIGELAKRTACPVVTIRFYEQEGLLPPPGRSRGNFRLYGEEHVERLQFIRHCRSADMPLSDVRTLLSYRKRPDQDCGEVNMLLDEHIRQVESRIGALLELKHHLVELREACSGARPAQSCGILQGLSDCVCDTRGTTAHPSD 0.0568
MNIQIGELAKRTACPVVTIRFYEQEGLLPPPGRSRGNFRLYGEEHVERLQFIRHCRSLDMPLSDVRTLLSYRKRPDQDCGEVSMLLDEHIRQVESRIGALLELKHHLVELREACSGARPAQSCGILQGLSDCVCDTRGTTAHPSD 0.0775

Items follow; give sfGFP reporter fluorescence for each.
1. MNIQIGELAKRTACPGVTIRFYEQEGLLPPPGRSRGNFRLYGEEHVERLQFIRHCRSLDMPLSDVRTLLSYRKRPDQDCGEVNMLLDEHIRQVESRIGALLELKHHLVELREACSGARPAQSCGILQGLSDCVCDTRGTTAHPSD
2. MNIQIGELAKRTACPVVTIRFYEQEGLLPPPGRSRGNFRLYGVEHVERLQFIRHCRSLDMPLSDVRTLLSYRKRPDQDCGEVNMLLDEHIRQVESRIGALLELKHHLVELREACSGARPAQSCGILQGLSDCVCDTRGTTAHPSD
3. MNIQIGELAKRTACPVVTIRFYEQEGLLPPPGRSRGNFRLYGEEHVERLQFIRHCRSLDMPLSDVRTLLSYRKRPDQDCGEVNMLLDEHIRQVESRIGALLELKHHLVELREACSGARPAQSCGIWQGLSDCVCDTRGTTAHPSD
4. MNIQISELAKRTACPVVTIRFYEQEGLLPPPGRSRGNFRLYGEEHVERLQFIRHCRSLDMPLSDVRTLLSYRKRPDQDCGEVNMLLDEHIRQVESRIGALLELKHHLVELREACSGARPAQSCGILQGLSDCVCDTRGTTAHPSD
5. MNIQIGELAKRTACPVVTIRFYEQEGLLPPPGRSRGNFRLYGEEHVERLQFIRHCRSLDMPLSDVRTLLSYRKRPDQDCGEVNMLLDEHIRQVESRIGALLELKHHLVEPREACSGARPAQSCGILQGLSDCVCDTRGTTAHPSD
6. MNIQIGELAKRTACPVVTIRFYEQEGLHPPPGRSRGNFRLYGEEHVERLQFIRHCRSLDMPLSDVRTLLSYRKRPDQDCGEVNMLLDEHIRQVESRIGALLELKHHLVELREACSGARPAQSCGILQGLSDCVCDTRGTTAHPSD
7. MNIQIGELAKRTACPVVTIRFYEQEGLLPPPGRSRGNFRLYGEEHVERLQFIRHCRSLDMPLSDVRTSLSYRKRPDQDCGEVNMLLDEHIRQVESRIGALLELKHHLVELREACSGARPAQSCGILQGLSDCVCDTRGTTAHPSD
8. MNIQIGELAKRTACPVVTIRFYEQEGLLPPPGRSRGNFRLYGEEHVERLQFIRHCRSLDMPSSDVRTLLSYRKRPDQDCGEVNMLLDEHIRQVESRIGALLELKHHLVELREACSGARPAQSCGILQGLSDCVCDTRGTTAHPSD

Response given:
1. 0.0812
2. 0.0883
3. 0.0594
4. 0.0685
5. 0.0581
6. 0.0625
7. 0.0588
8. 0.063
